Below, each entry is listed with its recorded T/C (%) Day 14.
# Test system: MV-4-11-Luc xenograft
# Protocol details: Efficacy in acute myeloid leukemia MV-4-11-luc xenograft mouse model
# Type: in vivo
# Applied conditions: 10 mg/kg orally twice daily, NSG mice, day 14
Kindly format the answer as number then unit.

O=C1CCC(N2Cc3c(ccc(CNC(=O)c4ccc(Cl)cc4)c3F)C2=O)C(=O)N1 (centres unmarked) = 0.05%
O=C1CCC(N2Cc3cc(CNC(=O)C(F)(F)c4ccc(Cl)cc4)ccc3C2=O)C(=O)N1 (centres unmarked) [CC-90009, reference compound] = 132.90%
Cc1ccc(C(=O)NCc2ccc3c(c2F)CN(C2CCC(=O)NC2=O)C3=O)cc1F (centres unmarked) = 2.12%
Cc1ccc(C(=O)NCc2ccc3c(c2F)CN(C2CCC(=O)NC2=O)C3=O)cc1 (centres unmarked) = 0.78%

According to the records, this molecule Cc1ccc(C(=O)NCc2ccc3c(c2F)CN(C2CCC(=O)NC2=O)C3=O)c(F)c1 (centres unmarked) displays T/C (%) Day 14 of 0.00%

* * *

# Assayed target: GSPT1 protein (Homo sapiens)
# Construct: The whole cell lysate was prepared using a RIPA lysis buffer; endogenous in cells; host or cells: NB-4 cells
# Protocol details: Degradation of GSPT1 protein in NB-4 cells (Western blot)
# Type: cell-based
# Applied conditions: NB-4 cells, compound 1 μM, 6 h; read-out: GSPT1 degradation
Below, each entry is listed with its recorded inhibition at 1 µM.

O=C1CCC(N2Cc3cc(CNC(=O)c4cccc(O)c4)c(F)cc3C2=O)C(=O)N1 (centres unmarked) [FDAB-36] = < 25%
Cc1ccc(C(=O)NCc2ccc3c(c2F)CN(C2CCC(=O)NC2=O)C3=O)c(N)c1 (centres unmarked) [FDAB-111] = < 25%

According to the records, this molecule Nc1ccc(C(=O)NCc2cc3c(cc2F)C(=O)N(C2CCC(=O)NC2=O)C3)cc1 (centres unmarked) [FDAB-27] displays inhibition at 1 µM of < 25%

According to the records, this molecule O=C1CCC(N2Cc3c(ccc(CNCc4cc5cc(Cl)ccc5o4)c3F)C2=O)C(=O)N1 (centres unmarked) [FDAB-165] displays inhibition at 1 µM of > 80%

According to the records, this molecule O=C1CCC(N2Cc3cc(CNC(=O)c4cc5cc(Cl)ccc5o4)cc(F)c3C2=O)C(=O)N1 (centres unmarked) [FDAB-22] displays inhibition at 1 µM of < 25%

According to the records, this molecule Cc1ccc(C(=O)NCc2ccc3c(c2Cl)CN(C2CCC(=O)NC2=O)C3=O)c(F)c1 (centres unmarked) [FDAB-123] displays inhibition at 1 µM of 50 to 80%

According to the records, this molecule N#Cc1cc2c(cc1F)C(=O)N(C1CCC(=O)NC1=O)C2 (centres unmarked) [FDAB-4] displays inhibition at 1 µM of < 25%

According to the records, this molecule O=C1CCC(N2Cc3c(ccc(CNC(=O)c4ccc(Cl)c(O)c4)c3F)C2=O)C(=O)N1 (centres unmarked) [FDAB-83] displays inhibition at 1 µM of > 80%

* * *

# Assayed target: GSPT1 protein (Homo sapiens, UniProt P15170)
# Construct: The whole cell lysate was prepared using a RIPA lysis buffer; endogenous in cells; host or cells: NB-4 cells
# Sequence (P15170 whole entry): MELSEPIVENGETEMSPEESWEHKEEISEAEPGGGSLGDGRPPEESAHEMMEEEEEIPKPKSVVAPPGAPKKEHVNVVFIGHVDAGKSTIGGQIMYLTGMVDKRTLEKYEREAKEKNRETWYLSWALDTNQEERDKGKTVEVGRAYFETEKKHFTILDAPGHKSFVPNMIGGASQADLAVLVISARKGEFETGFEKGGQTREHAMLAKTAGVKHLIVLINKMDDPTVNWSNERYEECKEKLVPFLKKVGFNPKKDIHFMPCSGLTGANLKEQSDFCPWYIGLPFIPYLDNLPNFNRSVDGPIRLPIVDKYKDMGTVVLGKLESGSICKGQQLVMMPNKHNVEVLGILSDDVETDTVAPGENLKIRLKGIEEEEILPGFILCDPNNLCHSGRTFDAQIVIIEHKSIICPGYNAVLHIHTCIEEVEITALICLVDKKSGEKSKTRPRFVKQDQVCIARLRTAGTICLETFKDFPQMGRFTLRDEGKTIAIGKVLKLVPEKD
# Protocol details: Degradation of GSPT1 protein in NB-4 cells (Western blot)
# Type: cell-based
# Applied conditions: NB-4 cells, compound 1 μM, 6 h; read-out: GSPT1 degradation
Quantity: inhibition at 1 µM

O=C1CCC(N2Cc3cc(CNC(=O)c4cnco4)c(F)cc3C2=O)C(=O)N1 (stereo not shown) = < 25%
O=C1CCC(N2Cc3cc(CNC(=O)c4cc5cc(F)ccc5o4)c(F)cc3C2=O)C(=O)N1 (stereo not shown) = 50 to 80%

Sample O=C(C#Cc1ccccc1)NCc1ccc2c(c1F)CN(C1CCC(=O)NC1=O)C2=O (stereo not shown) , system: GSPT1 protein (Homo sapiens, UniProt P15170). Its inhibition at 1 µM is > 80%

Sample O=C1CCC(N2Cc3cc(CNC(=O)c4cc5ccccc5o4)c(F)cc3C2=O)C(=O)N1 (stereo not shown) , system: GSPT1 protein (Homo sapiens, UniProt P15170). Its inhibition at 1 µM is > 80%

* * *

Below, each entry is listed with its recorded pIC50.
# Tested on: NCI-H929 cells
# Protocol details: Antiproliferative effect alone and in combination with dexamethasone against NCI-H929 cells
# Format: cell-based
# Applied conditions: 72 h, in combination with 500 nM dexamethasone, read-out: IC50
# Protocol: MOLM-13 cells in the logarithmic growth phase were diluted in a medium RPMI+[…], and NCI-H929 cells were diluted in a medium RPMI+10% FBS. The cells were plated at 4,000 cells/well in 96-well whole black plates (WHB) with 50 μL/well. After plating, the plates were incubated in an incubator at 5% CO2 and 37° C. for 24 h before the compounds were added. […] The luminescence value was measured at room temperature by the GloMax navigator (Promega GM2010). […]
The scale used: pIC50 is minus the common logarithm of the concentration in molar units.

Nc1cccc2c1C(=O)N(C1CCC(=O)NC1=O)C2=O (stereo not drawn) [Pomalidomide] = 7.65
O=C1CCC(N2Cc3cc(CNC(=O)C(F)(F)c4ccc(Cl)cc4)ccc3C2=O)C(=O)N1 (stereo not drawn) [CC-90009, reference compound] = 7.11

Switching to the query record.
According to the records, this molecule Nc1cccc2c1CN(C1CCC(=O)NC1=O)C2=O (stereo not drawn) [Lenalidomide] displays pIC50 of 6.11

* * *

Below, each entry is listed with its recorded inhibition at 1 µM.
# Assayed target: GSPT1 protein (Homo sapiens)
# Construct: The whole cell lysate was prepared using a RIPA lysis buffer; endogenous in cells; host or cells: NB-4 cells
# Protocol details: Degradation of GSPT1 protein in NB-4 cells (Western blot)
# Type: cell-based
# Applied conditions: NB-4 cells, compound 1 μM, 6 h; read-out: GSPT1 degradation
# Method: 150 μL of DMSO and the compounds (1 μM) were added, and the mixture was incubated in an incubator at 5% CO2 and 37° C. for 6 h. The cells were centrifuged, and the culture medium was discarded. PBS was added for washing and then discarded. The whole cell lysate was prepared using a RIPA lysis buffer containing a protease inhibitor cocktail and a phosphatase inhibitor, and incubated on ice for 30 min. The mixture was centrifuged, and the cell debris was discarded. […]

O=C1CCC(N2Cc3cc(CNC(=O)c4nc5ccccc5s4)c(F)cc3C2=O)C(=O)N1 (centres unmarked) = > 80%
O=C1CCC(N2Cc3cc(CNC(=O)c4ccc(C(F)(F)F)cc4)c(F)cc3C2=O)C(=O)N1 (centres unmarked) = > 80%
Cc1ccc(C(=O)NCc2cc3c(cc2F)C(=O)N(C2CCC(=O)NC2=O)C3)cc1 (centres unmarked) = > 80%
O=C1CCC(N2Cc3c(ccc(CNC(=O)c4ccc5ccccc5n4)c3F)C2=O)C(=O)N1 (centres unmarked) = > 80%
NCc1cc2c(cc1F)C(=O)N(C1CCC(=O)NC1=O)C2 (centres unmarked) = 50 to 80%
O=C1CCC(N2Cc3c(ccc(CNC(=O)c4ccc(Cl)c(F)c4)c3Cl)C2=O)C(=O)N1 (centres unmarked) = 50 to 80%
C#Cc1ccc(C(=O)NCc2ccc3c(c2F)CN(C2CCC(=O)NC2=O)C3=O)cc1 (centres unmarked) = > 80%

Switching to the query record.
According to the records, this compound O=C1CCC(N2Cc3cc(CNC(=O)c4cncs4)c(F)cc3C2=O)C(=O)N1 (centres unmarked) displays inhibition at 1 µM of < 25%

* * *

# Assayed target: GSPT1 protein (Homo sapiens, UniProt P15170)
# Construct: The whole cell lysate was prepared using a RIPA lysis buffer; endogenous in cells; host or cells: NB-4 cells
# Protocol details: Degradation of GSPT1 protein in NB-4 cells (Western blot)
# Type: cell-based
# Applied conditions: NB-4, 6 h, read-out: GSPT1 degradation
Quantity: inhibition at 1 µM

[2H]c1c([2H])c(C(=O)NCc2ccc3c(c2F)CN(C2CCC(=O)NC2=O)C3=O)c([2H])c([2H])c1Cl (centres unmarked) [FDAB-18] = > 80%
O=C1CCC(N2Cc3c(ccc(CNCc4ccc(Oc5ccccc5)cc4)c3F)C2=O)C(=O)N1 (centres unmarked) [FDAB-166] = > 80%

According to the records, this compound CC(C)OC(=O)OCN1C(=O)CCC(N2Cc3c(ccc(CNC(=O)c4ccc(Cl)cc4)c3F)C2=O)C1=O (centres unmarked) [FDAB-128] displays inhibition at 1 µM of 50 to 80%

According to the records, this compound O=C1CCC(N2Cc3c(ccc(CNC(=O)c4ccc(Cl)cc4)c3F)C2=O)C(=O)N1 (centres unmarked) [FDAB-48] displays inhibition at 1 µM of > 80%

According to the records, this compound Cc1ccc(C(=O)NCc2ccc3c(c2F)CN(C2CCC(=O)N(COC(=O)OC(C)C)C2=O)C3=O)c(F)c1 (centres unmarked) [FDAB-130] displays inhibition at 1 µM of 50 to 80%

Data origin, for the record: patent US20250282746A1
